Would you mind telling me the reported IC50 of each entry?
Biological target: human ABCG2 (Homo sapiens)
Sequence (Q9UNQ0 whole entry): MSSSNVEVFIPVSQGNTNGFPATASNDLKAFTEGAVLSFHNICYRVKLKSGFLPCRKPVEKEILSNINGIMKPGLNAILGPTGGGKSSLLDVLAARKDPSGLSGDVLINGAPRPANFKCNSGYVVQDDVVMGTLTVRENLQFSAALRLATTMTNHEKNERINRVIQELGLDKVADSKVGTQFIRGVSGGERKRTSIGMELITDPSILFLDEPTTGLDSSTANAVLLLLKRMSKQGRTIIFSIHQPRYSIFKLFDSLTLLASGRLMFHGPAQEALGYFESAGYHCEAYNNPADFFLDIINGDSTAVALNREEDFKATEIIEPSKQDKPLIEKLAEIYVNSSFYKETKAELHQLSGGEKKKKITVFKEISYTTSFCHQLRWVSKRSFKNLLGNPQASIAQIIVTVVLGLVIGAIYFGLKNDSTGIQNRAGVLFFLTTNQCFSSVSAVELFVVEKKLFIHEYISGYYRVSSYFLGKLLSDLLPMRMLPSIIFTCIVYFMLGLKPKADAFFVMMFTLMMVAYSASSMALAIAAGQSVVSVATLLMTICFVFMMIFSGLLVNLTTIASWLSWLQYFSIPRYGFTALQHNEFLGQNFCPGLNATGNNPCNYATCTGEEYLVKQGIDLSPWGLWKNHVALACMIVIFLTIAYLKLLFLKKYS
Assay: PhA transport inhibition
# number only, unit µM dropped from output

// Input: CS(=O)(=O)CCNCc1ccc(-c2ccc3ncnc(Nc4ccc(OCc5cccc(F)c5)c(Cl)c4)c3c2)o1 [Lapatinib] . Output its IC50 only.
0.085

Supply measured IC50 of Cc1cc(Nc2ncnc3ccc(NC4=NC(C)(C)CO4)cc23)ccc1Oc1ccn2ncnc2c1 [Arry-380] in your reply.
11

----------
Biological target: human ABCG2 (Homo sapiens)
Assay: Cellular thermal shift assay
attribute-measured: EC50

Given CS(=O)(=O)CCNCc1ccc(-c2ccc3ncnc(Nc4ccc(OCc5cccc(F)c5)c(Cl)c4)c3c2)o1 , respond with its EC50.
~69 nM
